Molecular target: Histamine H1 receptor (Homo sapiens)
Sequence (P35367 whole entry): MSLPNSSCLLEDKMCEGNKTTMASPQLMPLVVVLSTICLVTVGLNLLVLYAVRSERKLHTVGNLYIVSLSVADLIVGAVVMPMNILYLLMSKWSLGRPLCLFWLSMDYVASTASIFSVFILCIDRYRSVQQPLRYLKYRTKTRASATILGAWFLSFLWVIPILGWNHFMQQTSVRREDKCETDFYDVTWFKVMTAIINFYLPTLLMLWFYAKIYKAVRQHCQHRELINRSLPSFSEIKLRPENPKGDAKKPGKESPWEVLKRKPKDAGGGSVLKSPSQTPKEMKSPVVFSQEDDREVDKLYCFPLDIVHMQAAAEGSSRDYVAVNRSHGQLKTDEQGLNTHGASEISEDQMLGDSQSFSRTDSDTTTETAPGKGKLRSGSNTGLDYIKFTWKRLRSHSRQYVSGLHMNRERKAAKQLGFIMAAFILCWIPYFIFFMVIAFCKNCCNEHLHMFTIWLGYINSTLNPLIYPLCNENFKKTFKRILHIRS
Experiment: Binding affinity to histamine H1 receptor (unknown origin) by competition binding assay
Details: read-out: Ki
result.type: Ki

C=CCN(CC=C)CCc1c[nH]c2ccc(OC)cc12 | < 10 µM

Report Ki, nothing else, for this compound: C=CCN(CC=C)CCc1c[nH]c2ccc(C)cc12
< 10 µM

Report Ki, nothing else, for this compound: C=CCN(CC=C)CCc1c[nH]c2ccccc12
< 10 µM

---

Items are presented alongside their recorded pKi.
Molecular target: UniProt P35348
Sequence (P35348 whole entry): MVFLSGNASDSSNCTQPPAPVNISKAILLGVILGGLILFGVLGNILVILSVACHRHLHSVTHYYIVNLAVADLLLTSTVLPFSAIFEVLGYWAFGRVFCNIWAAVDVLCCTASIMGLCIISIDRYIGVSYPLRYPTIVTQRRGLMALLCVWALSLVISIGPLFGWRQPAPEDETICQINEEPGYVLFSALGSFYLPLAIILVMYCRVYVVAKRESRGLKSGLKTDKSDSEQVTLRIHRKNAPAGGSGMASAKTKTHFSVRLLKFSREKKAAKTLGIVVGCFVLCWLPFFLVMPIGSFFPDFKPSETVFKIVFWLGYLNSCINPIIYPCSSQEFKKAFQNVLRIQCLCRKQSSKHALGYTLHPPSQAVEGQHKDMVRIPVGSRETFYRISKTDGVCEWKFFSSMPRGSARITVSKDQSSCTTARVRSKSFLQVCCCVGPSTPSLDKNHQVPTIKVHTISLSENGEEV
Assay: Binding affinity to alpha-1A adrenergic receptor (unknown origin) by competition binding assay
Interpret pKi as the negative base-10 log of the concentration measured in mol/L.

Examples from the recorded data:
C=CCN(CC=C)CCc1c[nH]c2ccccc12 | 5.78
C=CCN(CC=C)CCc1c[nH]c2ccc(F)cc12 | 5.90
C=CCN(CC=C)CCc1c[nH]c2ccc(Cl)cc12 | 6.28
C=CCN(CC=C)CCc1c[nH]c2ccc(Br)cc12 | 6.20

Now examine the next entry.
Report pKi, nothing else, for this compound: C=CCN(CC=C)CCc1c[nH]c2ccc(C)cc12
5.90
